Measured EC50 by item
System: HEK293
ASSAY NOTES: Cytotoxicity against human HEK293 cells assessed as reduction in cell viability measured after 72 hrs by SRB assay
Type: ADME, cell-based
ASSAY SETUP: HEK293, 72 h
TEST READOUT: EC50 (µM)

>>> numeric_readout("C=C(C)[C@@H]1CC[C@]2(C(=O)N3CCN(C(=O)C4=C(C)C=C(C)N5C[N+](CCCCCCCCCCCC)(CCCCCCCCCCCC)N=C45)CC3)CC[C@]3(C)[C@H](CC[C@@H]4[C@@]5(C)CC[C@H](OC(C)=O)C(C)(C)[C@@H]5CC[C@]43C)[C@@H]12")
13.3
>>> numeric_readout("C=C(C)[C@@H]1CC[C@]2(C(=O)N3CCN(C(=O)C4=Cc5ccccc5N5C[N+](CC)(CC)N=C45)CC3)CC[C@]3(C)C(=CC[C@@H]4[C@@]5(C)CC[C@H](OC(C)=O)C(C)(C)[C@@H]5CC[C@]43C)[C@H]12")
16.5
>>> numeric_readout("C=C(C)[C@@H]1CC[C@]2(C(=O)NCCNC(=O)C3=Cc4ccccc4N4C[N+](CC)(CC)N=C34)CC[C@]3(C)C(=CC[C@@H]4[C@@]5(C)CC[C@H](OC(C)=O)C(C)(C)[C@@H]5CC[C@]43C)[C@H]12")
13.6
>>> numeric_readout("C=C(C)[C@@H]1CC[C@]2(C(=O)N3CCN(C(=O)C4=C(C)C=C(C)N5C[N+](CCCCCC)(CCCCCC)N=C45)CC3)CC[C@]3(C)[C@H](CC[C@@H]4[C@@]5(C)CC[C@H](OC(C)=O)C(C)(C)[C@@H]5CC[C@]43C)[C@@H]12.[Cl-]")
3

---

Tested on: NIH3T3
ASSAY NOTES: Cytotoxicity against mouse NIH3T3 cells assessed as reduction in cell viability upto 30 uM measured after 72 hrs by SRB assay
Type: cell-based
ASSAY SETUP: nih3t3, 72 h
TEST READOUT: Activity

>>> result("CCCCCC[N+]1(CCCCCC)CN2C(C)=CC(C)=C(C(=O)[O-])C2=N1")
"Non-Toxic"
>>> result("CC[N+]1(CC)CN2C(C)=CC(C)=C(C(=O)[O-])C2=N1")
"Non-Toxic"
>>> result("CCCCCCCC[N+]1(CCCCCCCC)CN2C(C)=CC(C)=C(C(=O)[O-])C2=N1")
"Non-Toxic"
>>> result("CC1=CC(C)=C(C(=O)[O-])C2=N[N+]3(CCOCC3)CN12")
"Non-Toxic"
>>> result("CC1=CC(C)=C(C(=O)[O-])C2=N[N+]3(CCN(C)CC3)CN12")
"Non-Toxic"
>>> result("CC1=CC(C)=C(C(=O)[O-])C2=N[N+]3(CCCC3)CN12")
"Non-Toxic"
>>> result("CC1=CC(C)=C(C(=O)[O-])C2=N[N+]3(CCCCC3)CN12")
"Non-Toxic"
>>> result("CC1=CC(C)=C(C(=O)[O-])C2=N[N+](C)(C)CN12")
"Non-Toxic"
>>> result("CCCCCCCCCCCC[N+]1(CCCCCCCCCCCC)CN2C(C)=CC(C)=C(C(=O)[O-])C2=N1")
"Non-Toxic"
